- EXPERIMENT: Stat Signaling Pathway (AID 446);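 note: ME-180 cervical cancer cells given 40 pM IL-6 alongside compound; SIE-controlled beta-lactamase reporter measured as 460/530 nm FRET emission ratio; % is set by controls: 0 for no effect and ±100 for the full control effect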
- MEASUREMENT_PARAMETERS: ME-180 (cervical carcinoma) SIE beta-lactamase reporter, IL-6 stimulated, 5 h; at 7.69 µM (top of the series) unless noted
- Experimental: NCGC Assay Overview: The IL-6/STAT signaling pathway was assayed in ME-180 cervical carcinoma cells by a beta-lactamase reporter gene controlled by a STAT Inducible Element (SIE). This reporter is induced by IL-6 at 40 pM AC50 and inhibited by the pan JAK inhibitor, 2-(1,1-Dimethylethyl)-9-fluoro-3,6-dihydro-7H-benz[h]-imidaz[4,5-f]isoquinolin-7-one, at approximately 10 nM AC50. Plated cells were incubated overnight and on the following day, stimulated with 40 pM IL-6 for 5 hrs. […]
Records with an inconclusive call do not appear.
MEASURED_ATTRIBUTE: activity, negative = inhibition (%)
Give bare numbers, in %.

>  <MOLECULE>
O=C(c1cc(Br)ccc1O)c1cc(Br)ccc1O

>  <MEASURED_ATTRIBUTE>
activity, negative = inhibition

>  <EXPERIMENTAL_RESULT>
-28

$$$$
>  <MOLECULE>
Nc1ncnc2c1ncn2CCCCC(=O)O

>  <MEASURED_ATTRIBUTE>
activity, negative = inhibition

>  <EXPERIMENTAL_RESULT>
-0.241

$$$$
>  <MOLECULE>
COCCn1c(=O)c(-c2cccs2)nc2cnc(Oc3ccc(OC)cc3)nc21

>  <MEASURED_ATTRIBUTE>
activity, negative = inhibition

>  <EXPERIMENTAL_RESULT>
11.7

$$$$
>  <MOLECULE>
Cc1ccc(S(=O)(=O)N2CCC(C(=O)O)(c3ccccc3)CC2)cc1

>  <MEASURED_ATTRIBUTE>
activity, negative = inhibition

>  <EXPERIMENTAL_RESULT>
-9.97

$$$$
>  <MOLECULE>
O=S(O)O.O=S(O)O.[Co].[NH2-].[NH2-].[NH2-].[NH2-]

>  <MEASURED_ATTRIBUTE>
activity, negative = inhibition

>  <EXPERIMENTAL_RESULT>
26

$$$$

Quick one: give me activity, negative = inhibition for each item below, same order please.
1. N[C@@H](Cc1nn[nH]n1)C(=O)O
2. O=S(=O)(O)c1ccc(N=Nc2ccc3c(S(=O)(=O)O)cccc3c2O)c2ccccc12

Result:
10.9
-4.32

Give measured activity, negative = inhibition for every item shown.
1. CC[C@@H](c1ccc2cc(O)ccc2c1)C(C)(C)C(=O)O
2. O=c1[nH][nH]c(=S)c(=O)[nH]1
3. CC1(CC(=O)O)O[C@H]2CCCCC[C@H]2O1 (stereo partly specified) (tested in a mixture with another compound)
4. O=C(O)CCCN1CCCCC1

Result:
[6.79, 3.19, 5.55, 9.26]
